Each entry below lists one item and its recorded Euclidean distance value.
# Tested on: 786-O
# runDescription: Euclidean distance of Cell Painting phenotypic profile (signed KS, 77 features) to DMSO centroid (dimensionless distance); 5 or 10 uM (library dependent); higher = stronger phenotypic change vs DMSO (phenoactivity)
# experimentalParameters: 48 h
Counter-ions that a name gives are not always drawn.
measuredMetric: Euclidean distance

[[record]]
molecule = "CC(=O)OCC[N+](C)(C)C [Acetylcholine iodide]"
readoutvalue = 0.893

[[record]]
molecule = "CCCCOc1cc(C(=O)NCCN(CC)CC)c2ccccc2n1"
readoutvalue = 0.885

[[record]]
molecule = "CC(C)[C@H]1C(=O)N[C@@H](CCCN=C(N)N)C(=O)NCC(=O)N[C@@H](CC(=O)O)C(=O)N[C@H](Cc2ccccc2)C(=O)N1C"
readoutvalue = 4.91

[[record]]
molecule = "COCCOC(=O)C1=C(C)NC(C)=C(C(=O)OC(C)C)C1c1cccc([N+](=O)[O-])c1 (stereo not drawn)"
readoutvalue = 1.59

[[record]]
molecule = "CNCc1ccc(-c2cc(-c3nc(-c4ccc(S(=O)(=O)C(C)C)cc4)cnc3N)on2)cc1"
readoutvalue = 3.55

[[record]]
molecule = "CC(C)(Oc1ccc(C(=O)c2ccc(Cl)cc2)cc1)C(=O)O [Fenofibric acid]"
readoutvalue = 0.559

[[record]]
molecule = "O=C1Cc2cc(CCN3CCN(c4nsc5ccccc45)CC3)c(Cl)cc2N1 [Ziprasidone HCl]"
readoutvalue = 1.99

[[record]]
molecule = "CNC(=O)c1cc(COc2nnc(Nc3ccc(Cl)cc3)c3ccoc23)ccn1"
readoutvalue = 1.21


====

# System: FB
# runDescription: Euclidean distance of Cell Painting phenotypic profile (signed KS, 77 features) to DMSO centroid (dimensionless distance); 5 or 10 uM (library dependent); higher = stronger phenotypic change vs DMSO (phenoactivity)
# experimentalParameters: 48 h
Structures can show the parent of a compound that is named as a salt.
measuredMetric: Euclidean distance

[[record]]
molecule = "Oc1cc(O)c2c(c1)O[C@H](c1ccc(O)c(O)c1)[C@H](O)C2 [(-)Epicatechin]"
target = "FB"
measuredmetric = "Euclidean distance"
readoutvalue = 1.15

[[record]]
molecule = "C[C@H](Nc1ncnc2nc[nH]c12)c1cc2cccc(Cl)c2c(=O)n1-c1ccccc1"
target = "FB"
measuredmetric = "Euclidean distance"
readoutvalue = 2.98

[[record]]
molecule = "Cc1cn(-c2cc(NC(=O)c3ccc(C)c(Nc4nccc(-c5cccnc5)n4)c3)cc(C(F)(F)F)c2)cn1 [Nilotinib hydrochloride]"
target = "FB"
measuredmetric = "Euclidean distance"
readoutvalue = 1.85

[[record]]
molecule = "COc1cc2nccc(Oc3ccc(NC(=O)C4(C(=O)Nc5ccc(F)cc5)CC4)cc3)c2cc1OC"
target = "FB"
measuredmetric = "Euclidean distance"
readoutvalue = 3.32

[[record]]
molecule = "CO[C@H]1/C=C/O[C@@]2(C)Oc3c(C)c(O)c4c(O)c(c5c(nc6cc(C)ccn65)c4c3C2=O)NC(=O)/C(C)=C\\C=C\\[C@H](C)[C@H](O)[C@@H](C)[C@@H](O)[C@@H](C)[C@H](OC(C)=O)[C@@H]1C"
target = "FB"
measuredmetric = "Euclidean distance"
readoutvalue = 1

[[record]]
molecule = "C[C@]12CC[C@H](O)CC1=CC[C@@H]1[C@@H]2CC[C@]2(C)C(n3cnc4ccccc43)=CC[C@@H]12"
target = "FB"
measuredmetric = "Euclidean distance"
readoutvalue = 1.35

[[record]]
molecule = "COc1cc2c(Oc3ccc4[nH]c(C)cc4c3F)ccnc2cc1OCC1(N)CC1 [Anlotinib (AL3818) dihydrochloride]"
target = "FB"
measuredmetric = "Euclidean distance"
readoutvalue = 3.46

[[record]]
molecule = "C/C=C1/[C@H](O[C@@H]2O[C@H](CO)[C@@H](O)[C@H](O)[C@H]2O)OC=C(C(=O)OC)[C@H]1CC(=O)OCCc1ccc(O)c(O)c1"
target = "FB"
measuredmetric = "Euclidean distance"
readoutvalue = 0.971

[[record]]
molecule = "CN1CCC[C@@H]1CCO[C@](C)(c1ccccc1)c1ccc(Cl)cc1 [Clemastine Fumarate]"
target = "FB"
measuredmetric = "Euclidean distance"
readoutvalue = 1.96

[[record]]
molecule = "COc1ccc(-c2nc3cc(C4=NNC(=O)CC4C)ccc3[nH]2)cc1 (stereo not given)"
target = "FB"
measuredmetric = "Euclidean distance"
readoutvalue = 1.27

[[record]]
molecule = "CC/C=C\\C/C=C\\C/C=C\\C/C=C\\C/C=C\\CCCC(=O)O"
target = "FB"
measuredmetric = "Euclidean distance"
readoutvalue = 0.941

[[record]]
molecule = "O=C(Nc1ccccc1)Nc1ccc(-c2ccc(C(=O)[C@@H]3CCC[C@H]3C(=O)O)cc2)cc1"
target = "FB"
measuredmetric = "Euclidean distance"
readoutvalue = 1.29

[[record]]
molecule = "CC(C)Cc1ccc(C(C)C(=O)OCc2ccccn2)cc1 (stereo not given)"
target = "FB"
measuredmetric = "Euclidean distance"
readoutvalue = 0.788

[[record]]
molecule = "CCc1cccc(CC)c1NC(=O)N1Cc2[nH]nc(NC(=O)c3ccc(N4CCN(C)CC4)cc3)c2C1"
target = "FB"
measuredmetric = "Euclidean distance"
readoutvalue = 3.44

[[record]]
molecule = "Nc1ccc(S(=O)(=O)Nc2ncccn2)cc1 [Sodium sulfadiazine]"
target = "FB"
measuredmetric = "Euclidean distance"
readoutvalue = 1.52


====

Reported Euclidean distance values follow for various compounds
# Tested on: A549
# runDescription: Euclidean distance of Cell Painting phenotypic profile (signed KS, 77 features) to DMSO centroid (dimensionless distance); 5 or 10 uM (library dependent); higher = stronger phenotypic change vs DMSO (phenoactivity)
# experimentalParameters: 48 h
Where a name gives a salt, the structure may show the parent alone.
measuredMetric: Euclidean distance

[[record]]
compound = "CN(CCOc1ccc(CC2SC(=O)NC2=O)cc1)c1ccccn1 (centres undefined) [Rosiglitazone]"
measuredmetric = "Euclidean distance"
readoutvalue = 0.979

[[record]]
compound = "CCc1cc2c(cc1CC)CC(NC[C@H](O)c1ccc(O)c3[nH]c(=O)ccc13)C2 [Indacaterol Maleate]"
measuredmetric = "Euclidean distance"
readoutvalue = 0.63

[[record]]
compound = "C#Cc1cccc(Nc2ncnc3cc(OCCOC)c(OCCOC)cc23)c1 [Erlotinib HCl (OSI-744)]"
measuredmetric = "Euclidean distance"
readoutvalue = 1.87

[[record]]
compound = "CO[C@@H]1[C@@H](O[C@@H]2O[C@H](C)[C@@H](O[C@H]3C[C@@](C)(O)[C@@H](OC(=O)CC(C)C)[C@H](C)O3)[C@H](N(C)C)[C@H]2O)[C@@H](CC=O)C[C@@H](C)[C@@H](O)/C=C/C=C/C[C@@H](C)OC(=O)C[C@H]1OC(C)=O [Josamycin]"
measuredmetric = "Euclidean distance"
readoutvalue = 1.07

[[record]]
compound = "C/C(=N\\NC(=S)N1CCC1)c1ccccn1"
measuredmetric = "Euclidean distance"
readoutvalue = 3.49

[[record]]
compound = "CC(=O)OC(C)C[N+](C)(C)C (centres undefined) [Methacholine chloride]"
measuredmetric = "Euclidean distance"
readoutvalue = 1.02

[[record]]
compound = "OC[C@@H](O)[C@@H](O)[C@H](O)[C@H](O)CO [D-Mannitol]"
measuredmetric = "Euclidean distance"
readoutvalue = 0.536

[[record]]
compound = "Fc1cc(-c2cccc3ncc(-c4cnn(C5CCNCC5)c4)nc23)cc(F)c1CN1CCOCC1"
measuredmetric = "Euclidean distance"
readoutvalue = 3.31

[[record]]
compound = "COc1cccc(OC)c1C(=O)OCc1cc(O)ccc1O[C@@H]1O[C@H](CO)[C@@H](O)[C@H](O)[C@H]1O [Curculigoside]"
measuredmetric = "Euclidean distance"
readoutvalue = 0.731


====

# System: FB
# runDescription: Euclidean distance of Cell Painting phenotypic profile (signed KS, 77 features) to DMSO centroid (dimensionless distance); 5 or 10 uM (library dependent); higher = stronger phenotypic change vs DMSO (phenoactivity)
# experimentalParameters: 48 h
Where a name gives a salt, the structure may show the parent alone.
Euclidean distance: recorded values
measuredMetric: Euclidean distance

[[record]]
compound = "c1ccc(-c2[nH]ncc2-c2ccnc3ccccc23)nc1"
readoutvalue = 1.27

[[record]]
compound = "COc1ccc(NC(=O)c2ccc(C(=N)N(C)C)cc2)c(C(=O)Nc2ccc(Cl)cn2)c1"
readoutvalue = 0.875

[[record]]
compound = "CN(C)CCOC(=O)C(c1ccccc1)C1(O)CCCC1 (centres undefined) [Cyclopentolate Hydrochloride]"
readoutvalue = 1.15

[[record]]
compound = "Nc1nc(N)c2nc(-c3ccccc3)c(N)nc2n1"
readoutvalue = 1.13

[[record]]
compound = "C=C(C)[C@@H]1CC=C(CO)CC1"
readoutvalue = 0.953

[[record]]
compound = "Cc1c(F)cc(C(=O)NC2CC2)cc1-c1ccc(C(=O)NCC(C)(C)C)cn1"
readoutvalue = 0.572

[[record]]
compound = "COc1cc(O)c(C(=O)Nc2nc(C(=O)NCCN(C(C)C)C(C)C)cs2)cc1OC [Acotiamide]"
readoutvalue = 0.785

[[record]]
compound = "O=C(NCc1ccccc1)c1csc(Nc2ccncn2)n1"
readoutvalue = 2.01

[[record]]
compound = "CC(=O)NO [Acetohydroxamic acid]"
readoutvalue = 1.17

[[record]]
compound = "Cc1cc(C(C)Nc2ccccc2)c2nc(N3CCOCC3)cc(=O)n2c1 (centres undefined)"
readoutvalue = 1.62

[[record]]
compound = "CC(N/C(=N\\C#N)Nc1ccncc1)C(C)(C)C (centres undefined)"
readoutvalue = 1.15

[[record]]
compound = "CC[C@H]1[C@@H](O)[C@@H]2[C@H](CC[C@]3(C)[C@@H]([C@H](C)CCC(=O)O)CC[C@@H]23)[C@@]2(C)CC[C@@H](O)C[C@@H]12"
readoutvalue = 0.944

[[record]]
compound = "CC(C)N(CC[C@H](c1ccccc1)c1cc(CO)ccc1O)C(C)C"
readoutvalue = 0.842

[[record]]
compound = "CCN(CC)CC(=O)Oc1ccc(NC(C)=O)cc1 [Propacetamol hydrochloride]"
readoutvalue = 0.897

[[record]]
compound = "c1cc(-c2cnn3cc(-c4ccc(N5CCNCC5)cc4)cnc23)c2cccnc2c1"
readoutvalue = 6.55

[[record]]
compound = "Cn1cc(C(=O)[C@@H]2CCc3[nH]cnc3C2)c2ccccc21 [Ramosetron Hydrochloride]"
readoutvalue = 1.34

[[record]]
compound = "Nc1ccc(/N=N/c2ccccc2)c(N)n1 [Phenazopyridine HCl]"
readoutvalue = 1.04

[[record]]
compound = "Clc1ccc(COC(Cn2ccnc2)c2ccc(Cl)cc2Cl)cc1 (centres undefined)"
readoutvalue = 1.02

[[record]]
compound = "OCCOCCN1CCN(C(c2ccccc2)c2ccc(Cl)cc2)CC1 (centres undefined) [Hydroxyzine 2HCl]"
readoutvalue = 0.804

